Test system: NCI-H226 lung
Assay: NCI tumour cell line growth inhibition, 48 h
Let's look at some compounds and their measured TGI.
The figure you give is taken to be in µM; do not add the unit.

                                   compound    target_desc  readout_label  reported_result
0  Oc1ccc(O)c(-c2cc(-c3ccc(Cl)cc3)nn2-c2ccccc2)c1  NCI-H226 lung            TGI             24.3

TGI lookup needed for Brc1ccc2[nH]cc(-c3nc(-c4c[nH]c5ncccc45)cs3)c2c1 , thanks.
21.7

Consider next the compound COc1ccc2c(c1)C/C(=C\c1cccc3ccccc13)C2=O in the same way.
59.7

Consider next the compound COc1cccc(-c2ccc3c(c2)C2CCN(Cc4ccccc4)C3C2)c1 (centres undefined) in the same way.
30.4

Hello, the source for this data is PubChem BioAssay (NCI), in case you need it.
